# Test system: HeLaS3 cells
# experiment.notes: Growth Inhibitory Test on HeLaS3 Cells
# Format: cell-based
# settings: Homo sapiens, HeLa S3, 72 hours incubation, cell counts
So I've got a bunch of compounds here, and I need their pIC50 values.
Recall that pIC50 is obtained by taking minus log10 of the concentration measured in molar.

# pIC50 lookup, item COC(=O)c1cc2c([nH]1)C(=O)C=C1N(C(=O)c3cc4cc(OC)c(OC)c(OC)c4[nH]3)C[C@H]3C[C@]123 [Duocaraycin, duocarmycin, reference compound] 8.33

Now consider COC(=O)c1c(C)[nH]c2c1C13CC1CN(C(=O)/C=C/c1cc(NC(=O)c4cc(NC(C)=O)cn4C)cn1C)C3=CC2=O (stereo not drawn) . 8.82

Now consider COC(=O)c1c(C)[nH]c2c1C13CC1CN(C(=O)/C=C/c1cc(NC(=O)c4nc(NC(C)=O)cn4C)cn1C)C3=CC2=O (stereo not drawn) . 9.15
